// data source = ChEMBL document CHEMBL3808364

test: Dissociation constant, pKa of the compound
Type: physicochemical
For each entry below, report its pKa value.
Please give only the number in your answer, with no unit.

Query: Bench note: what pKa did O=C(Nc1cc[nH]n1)N1CCN(Cc2cccc(Oc3ccc(Cl)cc3)c2)CC1 show?
Response: 2.5

Query: # lookup: pKa of O=C(Nc1cnccc1Cl)N1CCN(Cc2cccc(Oc3ccc(Cl)cc3)c2)CC1
Response: 3.85

Query: Can you look up the measured pKa of O=C(Nc1cccnc1)N1CCN(Cc2cccc(Oc3ccc(Cl)cc3)c2)CC1 for me?
Response: 5.25

Query: Param item = N#Cc1ccncc1NC(=O)N1CCN(Cc2cccc(Oc3ccc(Cl)cc3)c2)CC1 ; retrieve measured pKa.
Response: 1.9

Query: Please report the recorded pKa for O=C(Nc1cnccn1)N1CCN(Cc2cccc(Oc3ccc(Cl)cc3)c2)CC1 .
Response: 0.6

----------
experimental_target: Fatty-acid amide hydrolase 1 (Rattus norvegicus, UniProt P97612)
Sequence (P97612 whole entry): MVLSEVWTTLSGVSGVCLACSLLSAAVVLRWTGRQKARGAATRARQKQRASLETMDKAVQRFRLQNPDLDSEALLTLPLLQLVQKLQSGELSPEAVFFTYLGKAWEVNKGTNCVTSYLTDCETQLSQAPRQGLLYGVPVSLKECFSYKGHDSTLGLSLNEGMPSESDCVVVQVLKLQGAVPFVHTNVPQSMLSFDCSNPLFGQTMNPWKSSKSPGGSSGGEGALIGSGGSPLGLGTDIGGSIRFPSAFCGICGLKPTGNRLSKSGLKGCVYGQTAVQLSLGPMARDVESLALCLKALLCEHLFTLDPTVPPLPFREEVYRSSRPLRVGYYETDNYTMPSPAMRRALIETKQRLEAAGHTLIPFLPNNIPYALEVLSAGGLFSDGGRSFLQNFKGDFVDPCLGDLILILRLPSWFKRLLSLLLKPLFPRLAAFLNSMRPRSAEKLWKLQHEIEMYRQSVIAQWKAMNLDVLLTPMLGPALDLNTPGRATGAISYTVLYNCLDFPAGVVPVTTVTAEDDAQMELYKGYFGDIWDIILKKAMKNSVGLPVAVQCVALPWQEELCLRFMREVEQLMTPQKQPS
test: Apparent inhibition of recombinant rat FAAH expressed in SK-N-MC cells assessed as [3H]-anandamide hydrolysis after 1 hr by liquid scintillation analysis
pIC50: −log10 of the molar value.
Please enter Y where pIC50 is greater than or equal to 7, and N where it is lower.

Query: Determine whether measured pIC50 meets or exceeds 7 for O=C(Nc1cccnc1)N1CCC(Cc2cccc(Oc3ccc(Cl)cc3)c2)CC1
Response: N

Query: Could you tell me if the measured pIC50 of O=C(Nc1cccnc1)N1CCN(Cc2cccc(Oc3ccc(F)cc3)c2)CC1 reaches 7 or more?
Response: N

Query: Given the entry N#Cc1ccncc1NC(=O)N1CCN(Cc2cccc(Oc3ccc(Cl)cc3)c2)CC1 , answer whether its pIC50 meets or surpasses 7.
Response: Y

Query: Entry O=C(Nc1cccnc1)N1CCCC(Cc2cccc(Oc3ccc(F)cc3)c2)C1 (stereo unspecified) : is its pIC50 no less than 7?
Response: Y

Query: Determine whether this molecule has pIC50 no lower than 7: O=C(Nc1cnccc1Cl)N1CCN(Cc2cccc(Oc3ccc(F)cc3)c2)CC1
Response: Y

Query: Reported pIC50 reaches at least 7 for O=C(Nc1cccnc1)N1CCC(Cc2cccc(Oc3ccc(Cl)cn3)c2)CC1 ?
Response: Y

Query: Decide: is the reported value of pIC50 for O=C(Nc1cnccc1Cl)N1CCN(Cc2cccc(Oc3ccc(Cl)cc3)c2)CC1 equal to or greater than 7?
Response: Y

Query: Determine whether measured pIC50 meets or exceeds 7 for O=C(Nc1noc2ccccc12)N1CCN(Cc2cccc(Oc3ccc(Cl)cc3)c2)CC1
Response: Y

Query: Please check the record O=C(Nc1cccnc1)N1CCN(Cc2cccc(Oc3ccc(Br)cc3)c2)CC1 and state if its pIC50 is at or above 7.
Response: Y

----------
test: Ratio of drug level in brain to plasma in Sprague-Dawley rat at 20 mg/kg via oral gavage
Type: ADME, organism-based
condition: read-out: BPR
metric_name: Kp
Answer with the value's number alone.

Query: # get_value(readout='Kp', item= O=C(Nc1cccnc1)N1CCC(Cc2cccc(Oc3ccc(Cl)cc3)c2)CC1 )
Response: 2.26

Query: Value lookup for Kp; key = O=C(Nc1cnccc1Cl)N1CCN(Cc2cccc(Oc3ccc(F)cc3)c2)CC1
Response: 0.67

Query: Could you tell me which Kp is on file for O=C(Nc1cccnc1)N1CCCC(Cc2cccc(Oc3ccc(F)cc3)c2)C1 (stereo not given) ?
Response: 0.33

Query: Can you share its Kp? I mean this molecule: O=C(Nc1cccnc1)N1CCN(Cc2cccc(Oc3ccc(F)cc3)c2)CC1
Response: 1.57

Query: Recorded Kp of O=C(Nc1cccnc1)N1CCN(Cc2cccc(Oc3ccc(Cl)cc3)c2)CC1 , please.
Response: 2.62
